Taken from patent US20180111913A1.

# Test system: Mtb strain mc^27000
# Assay overview: microbe, parasite or virus in culture
# Assay type: cell-based, Mycobacterium tuberculosis
# Conditions used: Mycobacterium tuberculosis, Mtb mc^27000, liquid medium, 96-well plates; read-out: MIC
Observed property: MIC

Examples with answers:
>  <Structure>
CNC(=O)c1c(-c2cc(F)c(O)c(F)c2)oc2ccc(O)c(CN3CCCCC3)c12

>  <Observed property>
MIC

>  <Recorded measurement>
> 40 µM

$$$$
>  <Structure>
O=C(c1c(-c2ccccc2)oc2ccc(O)c(CN3CCCCC3)c12)N1CCOCC1

>  <Observed property>
MIC

>  <Recorded measurement>
> 20 µM

$$$$

Now take the following compound into account.
Request: MIC, test system Mtb strain mc^27000, entry "CCOC(=O)c1c(-c2ccccc2)oc2ccc(O)c(CCCO)c12"
> 20 µM

====

# Target or test system: Mtb Pks13-TE domain (wild-type) (Mycobacterium tuberculosis, UniProt I6X8D2)
# Sequence (I6X8D2 1451-1733): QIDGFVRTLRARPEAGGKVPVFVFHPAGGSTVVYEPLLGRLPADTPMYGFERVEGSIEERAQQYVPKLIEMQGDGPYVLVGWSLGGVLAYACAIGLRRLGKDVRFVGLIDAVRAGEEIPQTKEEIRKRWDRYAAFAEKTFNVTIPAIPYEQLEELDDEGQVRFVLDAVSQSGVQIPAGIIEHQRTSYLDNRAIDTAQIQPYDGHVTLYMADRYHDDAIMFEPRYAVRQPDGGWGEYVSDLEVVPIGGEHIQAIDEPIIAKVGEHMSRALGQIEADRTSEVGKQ
# Assay overview: biochemical
# Format: biochemical
# Conditions used: Pks13-TE, 20 μM 4-MUH; read-out: IC50
pIC50: −log10 of the molar value.
The entries below come with measured pIC50 values attached.

>  <Compound>
CNC(=O)c1c(-c2ccccc2)oc2ccc(O)c(CCN3CCC(C(F)(F)F)CC3)c12

>  <Recorded measurement>
< 4.70

$$$$

I would be grateful if you could share the reported pIC50 for CNC(=O)c1c(-c2ccccc2)oc2ccc(O)c(CCC3CCOC3=O)c12 (centres unmarked) .
< 4.40

Query (compound): CNC(=O)c1c(-c2ccccc2)oc2ccc(O)c(CCN3CCCC(C(F)(F)F)C3)c12 (centres unmarked) ; field requested: pIC50
< 5.00

====

Measured pIC50, listed per entry for reference.
# Target or test system: Mtb Pks13-TE domain (wild-type) (Mycobacterium tuberculosis, UniProt I6X8D2)
# Assay overview: biochemical
# Type: biochemical
# Conditions used: Pks13-TE, 20 μM 4-MUH; read-out: IC50
pIC50: −log10 of the molar value.

Examples with answers:
>  <Molecule>
CCOC(=O)c1c(-c2ccccc2)oc2ccc(O)c(CCCC3CCCC3)c12

>  <pIC50>
< 5.00

$$$$
>  <Molecule>
CCOC(=O)c1c(-c2ccccc2)oc2ccc(O)c(CCC3CCNCC3)c12

>  <pIC50>
< 4.40

$$$$
>  <Molecule>
CNC(=O)c1c(-c2ccccc2)oc2ccc(O)c(CCN3CCC(CO)CC3)c12

>  <pIC50>
< 4.40

$$$$
>  <Molecule>
CCOC(=O)c1c(-c2ccccc2)oc2cc(O)cc(CCN)c12 [compound 136]

>  <pIC50>
< 4.70

$$$$

# lookup: pIC50 of "CNC(=O)c1c(-c2ccnc(OC)c2)oc2cc(OC)cc(CN3CCCCC3)c12"
< 4.70
